Tested on: ADP-Induced Platelet Aggregation
Experiment: Inhibition of ADP-induced platelet aggregation in rabbit platelet-rich plasma (microplate method)
Assay type: cell-based
Settings: Oryctolagus cuniculus, Platelet; rabbit PRP, inducer ADP, absorbance 655 nm; read-out: IC50 (Mean ± SE), ADP-induced platelet aggregation
Method: Example 62 Investigation on Inhibition of ADP-Induced Platelet Aggregation in Rabbit […] Several wells of a microplate were selected as test wells, which were added with 135 μL of PRP and then respectively added with 15 μL of the 10× stock solutions. […] The plate was shaken, incubated at 37° C. for 5 min, and then measured for A0 at 655 nm. […] The platelet aggregation rate (AR) and platelet aggregation inhibition rate (AIR) were calculated according to the following formulas: […]
pIC50 reference
Note on units: pIC50 is unitless, being -log10 of a concentration expressed in mol/L.

Cc1ccc(COn2c(-c3cccc(C#N)c3)nc(C)c2C(=O)O)cc1 [LY-27s]; 5.18
CCOC(=O)c1c(C)nc(-c2cccc(C#N)c2)n1OCc1ccc([N+](=O)[O-])cc1 [LY-26v]; 5.06
CCOC(=O)c1c(C)nc(-c2cccc(-c3noc(=O)[nH]3)c2)n1O; 4.66

// pIC50 value for CCOC(=O)c1c(C)nc(-c2cccc(C#N)c2)n1OCc1cccc(F)c1 [LY-26m] : 4.65

###

pIC50 listing for selected compounds.
Tested on: ADP-Induced Platelet Aggregation
Assay: Inhibition of ADP-induced platelet aggregation in rabbit platelet-rich plasma (microplate method)
Format: cell-based
Settings: Oryctolagus cuniculus, Platelet; rabbit PRP, inducer ADP, absorbance 655 nm; read-out: IC50 (Mean ± SE), ADP-induced platelet aggregation
Experimental: Example 62 Investigation on Inhibition of ADP-Induced Platelet Aggregation in Rabbit […] Several wells of a microplate were selected as test wells, which were added with 135 μL of PRP and then respectively added with 15 μL of the 10× stock solutions. […] The plate was shaken, incubated at 37° C. for 5 min, and then measured for A0 at 655 nm. […] The platelet aggregation rate (AR) and platelet aggregation inhibition rate (AIR) were calculated according to the following formulas: […]
# pIC50: negative log10 of molar concentration; output just the value

Field: example entries. Status: answers known.
CCOC(=O)c1c(C)nc(-c2cccc(C#N)c2)n1OCCCO [LY-26f]; 4.94
CCOn1c(-c2cccc(C#N)c2)nc(C)c1C(=O)O [LY-27b]; 5.01

// next entry
Entry CCOC(=O)c1c(C)nc(-c2cccc(C#N)c2)n1OC [LY-26a] — recorded pIC50 = 5.04

###

System: ADP-Induced Platelet Aggregation
Assay: Inhibition of ADP-induced platelet aggregation in rabbit platelet-rich plasma (microplate method)
Assay type: cell-based
Conditions: Oryctolagus cuniculus, Platelet; rabbit PRP, inducer ADP, absorbance 655 nm; read-out: IC50 (Mean ± SE), ADP-induced platelet aggregation
quantity: pIC50
Remember, pIC50 is on a log scale: it is -log10 of the molar concentration.

Examples with their reported pIC50 follow.
CCOC(=O)c1c(C)nc(-c2cccc(C#N)c2)n1OCc1cccc(Cl)c1 [LY-26p]; 4.71
CCCNC(=O)c1c(C)nc(-c2cccc(C#N)c2)n1OC [LY-28a]; 5.02
CCOC(=O)c1c(C)nc(-c2cccc(C#N)c2)n1O; 4.75
CCOC(=O)c1c(C)nc(-c2ccccc2C#N)n1OC; 4.83
C=CCOn1c(-c2cccc(C#N)c2)nc(C)c1C(=O)OCC [LY-26d]; 5.23

Query CCOC(=O)c1c(C)nc(-c2cccc(C#N)c2)n1OCc1ccc(Br)cc1 [LY-26r] yields pIC50 of 4.61

###

Test system: ADP-Induced Platelet Aggregation
Experiment: Inhibition of ADP-induced platelet aggregation in rabbit platelet-rich plasma (microplate method)
Type: cell-based
Conditions: Oryctolagus cuniculus, Platelet; rabbit PRP, inducer ADP, absorbance 655 nm; read-out: IC50 (Mean ± SE), ADP-induced platelet aggregation
quantity: pIC50
Scale for pIC50: -log10 of concentration given in mol/L; no unit attached.

Reference set (4 entries):
COn1c(-c2cccc(C#N)c2)nc(C)c1C(=O)NC(C)C [LY-28b]; 4.95
CCOC(=O)c1c(C)nc(-c2cccc(C#N)c2)n1OCc1ccccc1Cl [LY-26o]; 5.06
CCOC(=O)c1c(C)nc(-c2cccc(-c3nnn[nH]3)c2)n1O; 4.66
CCOC(=O)c1c(C)nc(-c2cccc(C#N)c2)n1C [LY-30a]; 4.65

Continue with the molecule presented below.
Bench note, ADP-Induced Platelet Aggregation: entry Cc1nc(-c2cccc(C#N)c2)n(OCc2ccccc2)c1C(=O)O [LY-27k] , its pIC50 = 5.20
